Property: kon; scope: individual binders
Target: T1, recombinant human VEGF110 (human, UniProt P15692-4 27-136, limits assumed)
T1 construct: Made in house; also called hVEGF110
T1 sequence (looked up): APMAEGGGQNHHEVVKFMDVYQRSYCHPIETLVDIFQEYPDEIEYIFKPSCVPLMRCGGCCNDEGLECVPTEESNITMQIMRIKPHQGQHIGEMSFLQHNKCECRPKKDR
Test: Biacore SPR, VEGF immobilized, pH 5
Please respond with the number in M⁻¹ s⁻¹ and leave the unit unwritten.

Given 567-max (scFv, VL and VH tied by name; also called Protein Nr; 874) scFv: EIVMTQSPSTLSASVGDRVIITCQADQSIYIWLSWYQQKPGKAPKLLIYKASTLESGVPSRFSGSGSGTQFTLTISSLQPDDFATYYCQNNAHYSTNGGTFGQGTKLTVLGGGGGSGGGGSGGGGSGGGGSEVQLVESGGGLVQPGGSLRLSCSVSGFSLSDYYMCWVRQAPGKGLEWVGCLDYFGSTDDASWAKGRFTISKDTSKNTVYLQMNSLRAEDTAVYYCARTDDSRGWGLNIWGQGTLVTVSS , state its recorded kon.
1e+06

Switching to the query record.
Given 578-max (scFv, also called EP578max; #821) scFv: EIVMTQSPSTLSASVGDRVIITCQASEIIHSWLAWYQQKPGKAPKLLIYLASTLASGVPSRFSGSGSGTQFTLTISSLQPDDFATYYCQNVYLASTNGANFGQGTKLTVLGGGGGSGGGGSGGGGSGGGGSEVQLVESGGGLVQPGGSLRLSCTASGFSLTDYYYMTWVRQAPGKGLEWVGFIDPDDDPYYATWAKGRFTISRDTSKNTVYLQMNSLRAEDTAVYYCAGGDHNSGWGLDIWGQGTLVTVSS , state its recorded kon.
523000
